- Test system: HEK293 NF-kB-luciferase reporter cells
- method.notes: NF-kB luciferase reporter activity, robust Z-score vs plate median (robust Z-score (log luminescence)); higher = stronger NF-kB reporter activation
- run.conditions: TNF 0 ng/mL; TNF treatment time 8.5 h; transfection time 72 h
Exercise: state measured NF-kB luciferase reporter activity for each of the sequences provided.
One number for each entry.

Some solved cases for reference:
ACUUCACCUGGUCCACUAGCCGU: 0.123
UCUCUGGAGGGAAGCACUUUCUG: -0.463
GUGUCUUUUGCUCUGCAGUCA: 0.568

The following sequences each have a reported value; give each one's NF-kB luciferase reporter activity.
1. UCCAGCUCCUAUAUGAUGCCUUU
2. UAUGUGGGAUGGUAAACCGCUU
3. CACCCGUAGAACCGACCUUGCG

### Response
1. 3.61
2. 0.166
3. -0.634

###

- Tested on: HEK293 NF-kB-luciferase reporter cells
- method.notes: NF-kB luciferase reporter activity, robust Z-score vs plate median (robust Z-score (log luminescence)); higher = stronger NF-kB reporter activation
- run.conditions: TNF 40 ng/mL; TNF treatment time 8.5 h; transfection time 72 h
Each record gets a class by NF-kB luciferase reporter activity: LOW (below -0.5), MID (-0.5 to below 0.4), HIGH (0.4 or more)

GAAGUUGUUCGUGGUGGAUUCG: LOW
AUUGACACUUCUGUGAGUAG: MID

### Prompt Band of `UGGUUUACCGUCCCACAUACAU` ?
### Response MID

### Prompt // repeat for `UUUAACAUGGGGGUACCUGCUG` and report
### Response HIGH

### Prompt // repeat for `UCAGGCUCAGUCCCCUCCCGAU` and report
### Response MID

### Prompt // repeat for `AGCUCGGUCUGAGGCCCCUCAG` and report
### Response LOW

### Prompt // repeat for `AAAGUGCUUCCCUUUGGACUGU` and report
### Response LOW

###

- Tested on: HEK293 NF-kB-luciferase reporter cells
- method.notes: NF-kB luciferase reporter activity, robust Z-score vs plate median (robust Z-score (log luminescence)); higher = stronger NF-kB reporter activation
- run.conditions: TNF 0 ng/mL; TNF treatment time 8.5 h; transfection time 72 h
Exercise: state measured NF-kB luciferase reporter activity for each of the sequences provided.
Numbers only.

CAAAGCGCUCCCCUUUAGAGGU: 0
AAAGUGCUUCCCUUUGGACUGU: -1.29
CCACACCGUAUCUGACACUUU: -0.604

Now for a further sequence.
### Prompt Lab note: need NF-kB luciferase reporter activity with HEK293 NF-kB-luciferase reporter cells for entry `UUUGUUCGUUCGGCUCGCGUGA` , please look it up.
### Response -0.464

###

- Test system: HEK293 NF-kB-luciferase reporter cells
- method.notes: NF-kB luciferase reporter activity, robust Z-score vs plate median (robust Z-score (log luminescence)); higher = stronger NF-kB reporter activation
- run.conditions: TNF 0 ng/mL; TNF treatment time 8.5 h; transfection time 72 h
property.label: NF-kB luciferase reporter activity
Numbers only.

AUCAGCAAACAUUUAUUGUGUG: -0.389

The following sequences each have a reported value; give each one's NF-kB luciferase reporter activity.
1. UUCCCUUUGUCAUCCUUCGCCU
2. CUGACCUAUGAAUUGACAGCC
3. ACAAAGUGCUUCCCUUUAGAGU
4. CGCAUCCCCUAGGGCAUUGGUGU
5. CUCUUGAGGGAAGCACUUUCUGUU
6. UAUGUAAUAUGGUCCACAUCUU
7. UCAGUCUCAUCUGCAAAGAAG

### Response
1: 0.84; 2: -0.152; 3: -1.29; 4: -0.887; 5: 1.14; 6: -1.06; 7: 2.97

The following sequences each have a reported value; give each one's NF-kB luciferase reporter activity.
1. UAACACUGUCUGGUAAAGAUGG
2. UAGGCAGUGUCAUUAGCUGAUUG

### Response
1: 0.999; 2: 2.71

The following sequences each have a reported value; give each one's NF-kB luciferase reporter activity.
1. CUCCAGAGGGAAGUACUUUCU
2. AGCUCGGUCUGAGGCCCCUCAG
3. UUCACAGUGGCUAAGUUCCGC
4. AUAAGACGAGCAAAAAGCUUGU

### Response
1. -1.38
2. 1.38
3. 0.203
4. -0.187

Each recorded value in this set is attributed to the supplement of paper PMC3621838.
